# tested.on: T1, Biotin-huCGRPaSA (human, not fully specified; biotin (position not given))
# T1 construct: exact construct ('aSA') not explained; also called Biotin CGRPaSA; full-length (1-37) CGRP
# T1 peptide: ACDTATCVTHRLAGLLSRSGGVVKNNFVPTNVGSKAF
# experimental.details: ELISA, supernatant; relative to chimeric C245
value.type: Relative binding activity, % (%)
The answer is to be given in %; state only the numeric part.

hu63 (antibody, V domains shown, 1F5 HC-3/3E5 LC-1) VH: QVQLVQSGAEVKKPGASVKVSCKASGYTFTDFNMHWVRQAPGQGLEWMGYIYPYNGDVVYNQNFTNRVTLTVDTSSSTAYMELRSLRSDDTAVYYCAREGLGGYWGQGTLVTVSS VL: DIVLTQSPDSLAVSLGERATINCKASQNIDYDGYTYLNWYQQKPGQPPKVLIYSIFNLESGVPDRFSGSGSGTDFTLTISSLQAEDVAVYYCQQSNEVPYTFGQGTKLEIK; 122

Next up:
input: For the binder hu92 (antibody, V domains shown, 2A2 HC-1/1A2 LC2-1) VH: QVQLVQSGAEVKKPGASVKVSCKASGYTFTDYNMHWVRQAPGQRLEWMGYVYPYNGGSAYNQKFKSRVTLTVDTSSSTAYMELSSLRSEDTAVYYCAREGLGGYWGQGTLVTVSS VL: DIVLTQSPASLAVSPGQRATITCKASQNIDYDGYAYLNWYQQKPGQPPKVLIYSVFNLESGVPARFSGSGSGTDFTLTINPVEANDTANYYCQQSNEFPYTFGQGTKLEIK , what Relative binding activity, % is on record?
output: 32
